Listed below: mean fluorescence intensity values for each entry.
Target: his-labeled human IL-13 (immunogen A) (human) (UniProt P35225)
Experiment: FACS blocking, biotin-IL-13 on IL-13Ra1/IL-4Ra HEK293 cells; antibody at 0.27 nM

binder	mean fluorescence intensity
c29D9H8 (mouse-human chimeric IL-13 antibody) (antibody, V domains shown) VH: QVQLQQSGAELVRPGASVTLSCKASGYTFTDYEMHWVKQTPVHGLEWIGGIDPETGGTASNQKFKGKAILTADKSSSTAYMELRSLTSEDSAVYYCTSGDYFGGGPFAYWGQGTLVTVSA VL: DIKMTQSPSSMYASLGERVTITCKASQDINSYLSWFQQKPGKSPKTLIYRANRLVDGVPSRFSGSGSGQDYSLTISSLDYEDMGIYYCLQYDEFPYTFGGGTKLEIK	72.6
c70F10A10 (mouse-human chimeric IL-13 antibody) (antibody, V domains shown) VH: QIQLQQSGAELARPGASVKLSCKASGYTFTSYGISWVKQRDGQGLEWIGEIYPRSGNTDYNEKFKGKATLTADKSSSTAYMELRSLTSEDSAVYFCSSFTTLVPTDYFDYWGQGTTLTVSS VL: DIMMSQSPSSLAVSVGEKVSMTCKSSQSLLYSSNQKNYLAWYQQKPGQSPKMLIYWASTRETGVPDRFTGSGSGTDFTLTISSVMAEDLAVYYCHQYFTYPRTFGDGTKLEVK	83.7
29D9H8 (lead antibody, mouse hybridoma) (antibody, V domains shown, Mouse monoclonal antibody purified from hybridoma supernatant on Protein G) VH: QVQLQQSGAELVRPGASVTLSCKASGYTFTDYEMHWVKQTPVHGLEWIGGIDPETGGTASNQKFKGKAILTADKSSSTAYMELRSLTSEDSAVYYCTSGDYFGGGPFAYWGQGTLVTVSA VL: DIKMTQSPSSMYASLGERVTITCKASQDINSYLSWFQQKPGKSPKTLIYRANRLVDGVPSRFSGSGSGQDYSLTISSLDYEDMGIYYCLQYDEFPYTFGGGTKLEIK	45.3
